Sourced from patent US20220033501A1

TEST_TARGET: T1, human TIM-3, full length, on cells (human, UniProt Q8TDQ0 22-301)
T1 construct: Also used here for native TIM-3 on PBMC in the functional rows; also called CHOK1-hTIM-3; HEK293-h TIM-3
T1 sequence: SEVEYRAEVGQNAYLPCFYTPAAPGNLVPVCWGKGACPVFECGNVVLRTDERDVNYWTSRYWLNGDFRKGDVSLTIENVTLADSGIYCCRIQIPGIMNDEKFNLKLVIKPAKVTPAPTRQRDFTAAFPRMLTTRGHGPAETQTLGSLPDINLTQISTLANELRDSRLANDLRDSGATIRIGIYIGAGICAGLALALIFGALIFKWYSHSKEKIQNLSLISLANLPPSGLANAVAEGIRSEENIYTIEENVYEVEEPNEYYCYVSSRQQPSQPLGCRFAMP
PROTOCOL_NOTES: FACS, CHOK1-hTIM-3 cells; antibody 8 nM
QUANTITY_KIND: Mean fluorescence intensity

>  <BINDER>
57F4E5 (TIM-3 antibody purified from hybridoma, chimeric antibody of Example 2) (antibody, V domains shown, From hybridoma of Harbour H2L2 transgenic mice: human variable regions, rat constant regions) VH: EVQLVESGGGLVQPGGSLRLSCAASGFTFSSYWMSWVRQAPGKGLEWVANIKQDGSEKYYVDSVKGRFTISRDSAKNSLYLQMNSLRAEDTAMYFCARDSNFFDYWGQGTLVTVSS VL: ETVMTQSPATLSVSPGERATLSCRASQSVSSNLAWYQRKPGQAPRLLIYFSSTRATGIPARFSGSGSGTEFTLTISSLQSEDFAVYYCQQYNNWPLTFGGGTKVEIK

>  <QUANTITATIVE_READOUT>
478

$$$$
